Target: T1, NOD mouse SIRP-α D1 domain (mouse (NOD strain))
T1 chain: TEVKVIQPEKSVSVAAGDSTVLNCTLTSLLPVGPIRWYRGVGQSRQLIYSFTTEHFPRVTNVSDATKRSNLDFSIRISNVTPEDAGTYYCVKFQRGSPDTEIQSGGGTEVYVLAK
Experiment: SPR, antibody immobilised on GLC chip
The entries below come with measured Kd values attached.
Enter your answer as a number in nM; do not include the unit.

1) antibody 136 variant MutRv_I2T/mut (antibody, human IgG1, V domains shown, Human IgG1 with L234A/L235A/G237A/N297A; Labels are light chain/heavy chain) VH: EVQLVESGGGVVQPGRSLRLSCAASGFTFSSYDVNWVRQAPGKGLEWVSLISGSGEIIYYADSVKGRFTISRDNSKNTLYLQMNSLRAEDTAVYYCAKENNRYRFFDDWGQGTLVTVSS VL: ETVLTQSPGTLSLSPGERATLSCRASQSVYTYLAWYQQKPGQAPRLLIYGASSRATGIPDRFSGSGSGTEFTLTISSLQSEDFAVYYCQQYYDRPPLTFGGGTKVEIK; 0.68
2) antibody 136 variant MutRv_Q38E/mut (antibody, human IgG1, V domains shown, Human IgG1 with L234A/L235A/G237A/N297A; Labels are light chain/heavy chain) VH: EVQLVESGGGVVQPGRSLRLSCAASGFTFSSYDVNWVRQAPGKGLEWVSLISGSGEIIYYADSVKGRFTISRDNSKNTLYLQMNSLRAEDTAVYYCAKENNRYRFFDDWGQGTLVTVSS VL: EIVLTQSPGTLSLSPGERATLSCRASQSVYTYLAWYQEKPGQAPRLLIYGASSRATGIPDRFSGSGSGTEFTLTISSLQSEDFAVYYCQQYYDRPPLTFGGGTKVEIK; 5.98

Continue with the next binder.
Recorded Kd for antibody 136 variant MutRv_S12T/mut (antibody, human IgG1, V domains shown, Human IgG1 with L234A/L235A/G237A/N297A; Labels are light chain/heavy chain) VH: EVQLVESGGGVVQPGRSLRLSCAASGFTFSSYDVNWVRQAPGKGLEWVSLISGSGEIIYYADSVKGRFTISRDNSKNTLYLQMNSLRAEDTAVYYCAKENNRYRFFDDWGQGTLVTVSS VL: EIVLTQSPGTLTLSPGERATLSCRASQSVYTYLAWYQQKPGQAPRLLIYGASSRATGIPDRFSGSGSGTEFTLTISSLQSEDFAVYYCQQYYDRPPLTFGGGTKVEIK , please?
2.85
